Attribution: patent US20250136720A1

Entries annotated with measured MFI
Target Desc: T1, Murine Fibroblast Activation Protein (FAP) on B16 cells (mouse, UniProt P97321 1-761)
T1 construct: B16 cells transduced with murine FAP cDNA; also called B16-FAP
T1 sequence (P97321 other isoform, or with tags, fused parts or gaps): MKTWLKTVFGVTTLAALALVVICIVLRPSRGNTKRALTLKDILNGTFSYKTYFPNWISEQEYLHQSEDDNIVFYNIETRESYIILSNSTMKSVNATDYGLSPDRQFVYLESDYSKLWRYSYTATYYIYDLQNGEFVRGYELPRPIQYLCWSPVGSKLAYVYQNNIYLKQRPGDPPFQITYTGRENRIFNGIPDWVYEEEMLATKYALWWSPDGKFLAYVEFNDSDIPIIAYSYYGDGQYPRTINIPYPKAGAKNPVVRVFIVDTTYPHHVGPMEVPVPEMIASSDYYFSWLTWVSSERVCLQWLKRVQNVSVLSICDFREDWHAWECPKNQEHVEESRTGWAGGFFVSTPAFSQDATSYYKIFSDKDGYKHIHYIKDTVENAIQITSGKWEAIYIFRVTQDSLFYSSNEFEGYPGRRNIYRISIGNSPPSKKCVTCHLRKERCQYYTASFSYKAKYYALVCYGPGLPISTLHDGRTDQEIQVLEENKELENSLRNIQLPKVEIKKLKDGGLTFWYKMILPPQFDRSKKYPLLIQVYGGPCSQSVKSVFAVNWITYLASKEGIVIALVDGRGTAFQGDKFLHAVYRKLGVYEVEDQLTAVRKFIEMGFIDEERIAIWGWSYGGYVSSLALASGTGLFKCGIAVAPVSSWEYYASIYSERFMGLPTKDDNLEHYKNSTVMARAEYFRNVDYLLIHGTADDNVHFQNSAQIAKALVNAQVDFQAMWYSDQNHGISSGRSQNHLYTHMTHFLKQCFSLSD
Method: flow cytometry, scFv-Fc on B16-FAP cells
Field format: number, assumed MFI, no unit text.

Worked examples follow.
[[record]]
binder = "FAP.63.G3 (Fc fusion, Tested as scFv-Fc; orientation, linker and Fc not specified; also called FAP.63.C3; FAP 63.C3) VH: DVQLVESGGGVVRPGESLTLSCAASGFTFSNYDMGWVRQAPGEGLEWVSGIRGRGGSTYYADSVKGRFTISRDSSKNTLYLQMNSLRAEDTAVYYCAKENNRHSFFEYWGLGTLVTVSS VL: EIVLTQSPGTLSLSPGERATLSCRASQSVGHYLAWYQQKPGQAPRLLIYDASNRAIDIPDRFSGSGSGTEFTLTISRLEPEDFAVYYCQQYYNNWPPLTFGGGTKVEIK"
reported_measurement = 1410

[[record]]
binder = "FAP.84.A9 (Fc fusion, Tested as scFv-Fc; orientation, linker and Fc of this construct not specified) VH: DVQLVESGGGVVRPGGSLRLSCAASGFPFSSYPMTWVRQAPGEGLEWVSSIRPIGDRIHYADSVKGRFTISRDSSNNTLYLQMNSLRAEDTAVYYCATGWNFFDYWGLGTLVTVSS VL: EIVLTQSPGTLSLSPGERATLTCRASQTVATYLAWYQQKPGQAPRLLIYAAISRATGIPDRFIGSGSGTDFTLTINRLEPEDFAVYYCQQYKDWPPLTFGGGTKVEIK"
reported_measurement = 1300

[[record]]
binder = "FAP.65.F1 (Fc fusion, Tested as scFv-Fc; orientation, linker and Fc of this construct not specified) VH: DVQLVESGGGLVHPGGSLRLSCAASTFTFANYIMSWVRQAPGKGLEWVSGITGSSTNTYYTDSVKGRFTISRDNSKNTLYLEMNSLRAEDTAVYYCAKHQLYPYYAMDVWGQGTTVTVSS VL: EIVLTQSPGSLSLSPGERATLSCRASQPIDSYLAWYQQKPGQAPRLLIYGASTRATDIPDRFSGSGSGTEFTLTISSLQSEDFAVYYCQQYYDWPPVTFGGGTKVEIK"
reported_measurement = 1840


Ask | Consider the binder FAP.84.B8 (Fc fusion, Tested as scFv-Fc; orientation, linker and Fc of this construct not specified) VH: DVQLVESGGSVVRPGESLRLSCAASGFPFSSYPMTWVRQAPGEGLEWVSSIRGSGDRIHYADSVKGRFTISKDSSNNTLYLQMNSLRAEDTAVYYCATGWNFFDYWGLGTLVTVSS VL: EIVLTQSPGTLSLSPGERATLSCRASQTVATYLAWYQQKPGQAPRLLIYAAISRATGIPDRFSGSGSGTDFTLTITRLEPEDSAVYYCQQYKDWPPLTFGGGTKVEIK and give its measured MFI.
Reply | 1490
